// reported TD50 per item
# experiment-summary: Neurological toxicity, rotorod test, mice (ip)
# Type: in vivo
# conditions-used: male, CF No 1, mouse, in vivo, read-out: Mice (ip) Tox, TD50
assay-readout: TD50 (mg/kg)

>>> val("COCCCc1ccc(CNC(=O)[C@@H](COC)NC(C)=O)cc1 [(R)-7]")
62
>>> val("COC[C@@H](NC(C)=O)C(=O)NCc1ccc(OCc2cccc(F)c2)cc1 [(R)-3]")
26
>>> val("COCc1ccc(CNC(=O)[C@@H](COC)NC(C)=O)cc1 [(R)-8]")
180
>>> val("COC[C@@H](NC(C)=O)C(=O)NCc1ccc(C2(C(F)(F)F)N=N2)cc1 [(R)-9]")
68

###

# System: Rat
# experiment-summary: Behavioral toxicity, rat (po)
# Format: in vivo
# conditions-used: Table b500, orally, behavioral toxicity
assay-readout: Rat (po) Tox, TD50

>>> val("CC(=O)NCC(=O)NCc1ccc(OCc2cccc(F)c2)cc1 [compound 5]")
">500 [1.0] mg/kg"
>>> val("COC[C@@H](NC(C)=O)C(=O)NCc1ccc(OCc2cccc(F)c2)cc1 [(R)-10]")
">500 [0.5] mg/kg"
>>> val("CC(=O)NC(C(=O)NCc1ccc(OCc2cccc(F)c2)cc1)c1ccccn1 (racemic) [(R, S)-9]")
">30 [4] mg/kg"
>>> val("CC(=O)N[C@@H](C)C(=O)NCc1ccc(OCc2cccc(F)c2)cc1 [(S)-6]")
">30 [0.25 to mg/kg"

###

// reported melting point per item
assay-readout: melting point

>>> val("CC(=O)N[C@H](C)C(=O)NCc1ccc(OCc2cccc(F)c2)cc1")
"158 °C"
>>> val("COC[C@@H](NC(C)=O)C(=O)NCc1ccc(OCCc2cccc(F)c2)cc1 [(R)-19]")
"147 to 148 °C"
>>> val("COCCCc1ccc(CNC(=O)[C@@H](COC)NC(C)=O)cc1")
"105 to 107 °C"
>>> val("CC(=O)NC(C(=O)NCc1ccc(OCc2cccc(F)c2)cc1)c1ccccn1 (racemic) [(R, S)-9]")
"154 to 155 °C"
>>> val("COC[C@@H](NC(C)=O)C(=O)NCc1ccc(/C=C/c2cccc(F)c2)cc1 [(R)-14]")
"206 to 208 °C"
>>> val("COC[C@@H](NC(C)=O)C(=O)NCc1ccc(OCc2ccccc2)cc1 [(R)-20]")
"149 °C"
>>> val("COCc1ccc(CNC(=O)[C@@H](COC)NC(C)=O)cc1")
"119 to 120 °C"
>>> val("COC[C@@H](NC(C)=O)C(=O)NCc1ccc(OCc2ccccc2F)cc1 [(R)-21]")
"173 to 174 °C"
>>> val("CC(=O)N[C@@H](C)C(=O)NCc1ccc(OCc2cccc(F)c2)cc1 [(S)-6]")
"153 to 154 °C"
>>> val("COC[C@@H](NC(C)=O)C(=O)NCc1ccc(N=[N+]=[N-])cc1 [(R)-5]")
"149 to 150 °C"
>>> val("COC[C@@H](NC(C)=O)C(=O)NCc1ccc(CCc2cccc(F)c2)cc1 [(R)-13]")
"134 to 136 °C"
>>> val("COC[C@@H](NC(C)=O)C(=O)NCc1ccc(Oc2cccc(F)c2)cc1 [(R)-12]")
"125 to 126 °C"
>>> val("CC(=O)N[C@@H](C(=O)NCc1ccc(OCc2cccc(F)c2)cc1)C(C)(C)C")
"64 to 66 °C"
>>> val("COC[C@@H](NC(C)=O)C(=O)NCc1ccc(C#Cc2cccc(F)c2)cc1 [(R)-15]")
"200 to 202 °C"
>>> val("COC[C@@H](NC(C)=O)C(=O)NCc1ccc(NCc2cccc(F)c2)cc1 [(R)-17]")
"78 to 81 °C"
>>> val("COC[C@@H](NC(C)=O)C(=O)NCc1ccc(C2(C(F)(F)F)N=N2)cc1 [(R)-9]")
"195 °C (dec.)"
>>> val("COC[C@H](NC(C)=O)C(=O)NCc1ccc(N=[N+]=[N-])cc1 [(S)-5]")
"149 to 150 °C"
>>> val("COC[C@@H](NC(C)=O)C(=O)NCc1ccc(OCc2ccc(F)cc2)cc1 [(R)-22]")
"166 to 167 °C"

###

// reported Rat (po) PI per item
# Tested on: Rat
# experiment-summary: Maximal electroshock seizure (MES) test, rat (po)
# Type: in vivo
# conditions-used: Table b502, protective index (TD50/ED50)
assay-readout: Rat (po) PI

>>> val("COC[C@@H](NC(C)=O)C(=O)NCc1ccc(OCc2ccccc2)cc1 [(R)-20]")
">45"
>>> val("COC[C@@H](NC(C)=O)C(=O)NCc1ccc(OCc2ccccc2F)cc1 [(R)-21]")
">45"
>>> val("COC[C@@H](NC(C)=O)C(=O)NCc1ccc(OCc2cccc(F)c2)cc1 [(R)-10]")
">36"
>>> val("COC[C@@H](NC(C)=O)C(=O)NCc1ccc(OCc2ccc(F)cc2)cc1 [(R)-22]")
">86"

###

# System: Mice
# experiment-summary: Maximal electroshock seizure (MES) test, mice (ip)
# conditions-used: ip, PI=TD50/ED50
// reported Mice (ip) PI per item
assay-readout: Mice (ip) PI

>>> val("COC[C@@H](NC(C)=O)C(=O)NCc1ccc(C2(C(F)(F)F)N=N2)cc1 [(R)-9]")
4.4
>>> val("COC[C@@H](NC(C)=O)C(=O)NCc1ccc(N=[N+]=[N-])cc1 [(R)-5]")
5.5

###

# experiment-summary: Neurological toxicity, rotorod test, mice (ip)
# Format: in vivo
# conditions-used: male, CF No 1, mouse, in vivo, rotorod test, read-out: Mice (ip) Tox, Td50
assay-readout: TD50

>>> val("COC[C@@H](NC(C)=O)C(=O)NCc1ccc(OCCc2cccc(F)c2)cc1 [(R)-19]")
"30 to 100 mg/kg"
>>> val("COC[C@@H](NC(C)=O)C(=O)NCc1ccc(NCc2cccc(F)c2)cc1 [(R)-17]")
"30 to 100 mg/kg"
>>> val("COC[C@@H](NC(C)=O)C(=O)NCc1ccc(CCc2cccc(F)c2)cc1 [(R)-13]")
"30 to 100 mg/kg"
>>> val("COC[C@@H](NC(C)=O)C(=O)NCc1ccc(C#Cc2cccc(F)c2)cc1 [(R)-15]")
"100 to 300 mg/kg"
>>> val("COC[C@@H](NC(C)=O)C(=O)NCc1ccc(/C=C/c2cccc(F)c2)cc1 [(R)-14]")
"100 to 300 mg/kg"
>>> val("COC[C@@H](NC(C)=O)C(=O)NCc1ccc(Oc2cccc(F)c2)cc1 [(R)-12]")
"23 mg/kg"

###

# System: Mice
# experiment-summary: Maximal electroshock seizure (MES) test, mice (ip);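 further: male albino CF No. 1 mice dosed ip, MES stimulus 50 mA at 60 Hz lasting 0.2 s, efficacy endpoint is loss of hind leg tonic extension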
# conditions-used: ip, PI=TD50/ED50
assay-readout: Mice (ip) PI

>>> val("COC[C@@H](NC(C)=O)C(=O)NCc1ccc(OCc2cccc(F)c2)cc1 [(R)-3]")
"~2"
>>> val("COC[C@@H](NC(C)=O)C(=O)NCc1ccc(OC(F)(F)F)cc1 [(R)-4]")
"~9.3"
>>> val("COC[C@@H](NC(C)=O)C(=O)NCc1ccc(OCc2cccc(F)c2)cc1 [(R)-10]")
"~3.1"

FYI, the data here is from patent US8829033B2.
